Reported tissue uptake dose at 24 h values are given for each entry in this list.
assay: Biodistribution in mice bearing PC-3 xenografts; assay type: in vivo, Balb/c nu/nu mice; settings: mouse, total radioactivity; carcass; PC-3 xenografted Balb/c nu/nu mice, iv 100 pmol; 24 h pi; mean ± SD, n = 4; read-out: Body activity uptake
Expressed in %ID, but write only the number.

CC(C)C[C@H](NC(=O)C[C@H](O)[C@H](CC(C)C)NC(=O)[C@H](Cc1c[nH]cn1)NC(=O)CN(C)C(=O)[C@@H](NC(=O)[C@H](C)NC(=O)[C@](C)(Cc1c[nH]c2ccccc12)NC(=O)[C@H](CCC(N)=O)NC(=O)[C@@H](Cc1ccccc1)NC(=O)CN1CCC(NC(=O)COCCOCCNC(=O)CN2CCN(CC(=O)O)CCN(CC(=O)O)CCN(CC(=O)O)CC2)CC1)C(C)C)C(N)=O [[^177Lu]Lu-PKB3, metal not drawn]    1.1

Okay, next one:
// query Bench note: what tissue uptake dose at 24 h did CC(C)C[C@H](NC(=O)C[C@H](O)[C@H](CC(C)C)NC(=O)[C@H](Cc1c[nH]cn1)NC(=O)CN(C)C(=O)[C@@H](NC(=O)[C@H](C)NC(=O)[C@](C)(Cc1c[nH]c2ccccc12)NC(=O)[C@H](CCC(N)=O)NC(=O)[C@@H](Cc1ccccc1)NC(=O)CN1CCC(NC(=O)COCCOCCNC(=O)CCC(C(=O)O)N2CCN(CC(=O)O)CCN(CC(=O)O)CCN(CC(=O)O)CC2)CC1)C(C)C)C(N)=O (some centres unmarked) [[^177Lu]Lu-PKB2, metal not drawn] show?
// result 0.5

====

test: Biodistribution in mice bearing PC-3 xenografts; assay type: in vivo, Balb/c nu/nu mice; conditions: mouse, total radioactivity; carcass; PC-3 xenografted Balb/c nu/nu mice, iv 100 pmol; 2 h pi; mean ± SD, n = 4; read-out: Body activity uptake
Reported tissue uptake dose at 2 h values are given for each entry in this list.
Write your answer as a measured quantity: the number, then the unit.

CC(C)C[C@H](NC(=O)C[C@H](O)[C@H](CC(C)C)NC(=O)[C@H](Cc1c[nH]cn1)NC(=O)CN(C)C(=O)[C@@H](NC(=O)[C@H](C)NC(=O)[C@](C)(Cc1c[nH]c2ccccc12)NC(=O)[C@H](CCC(N)=O)NC(=O)[C@@H](Cc1ccccc1)NC(=O)CN1CCC(NC(=O)COCCOCCNC(=O)CCC(C(=O)O)N2CCN(CC(=O)O)CCN(CC(=O)O)CCN(CC(=O)O)CC2)CC1)C(C)C)C(N)=O (some centres unmarked) [[^177Lu]Lu-PKB2, metal not drawn]    1.8 %ID

Okay, next one:
// query Bench note: what tissue uptake dose at 2 h did CC(C)C[C@H](NC(=O)C[C@H](O)[C@H](CC(C)C)NC(=O)[C@H](Cc1c[nH]cn1)NC(=O)CN(C)C(=O)[C@@H](NC(=O)[C@H](C)NC(=O)[C@](C)(Cc1c[nH]c2ccccc12)NC(=O)[C@H](CCC(N)=O)NC(=O)[C@@H](Cc1ccccc1)NC(=O)CN1CCC(NC(=O)COCCOCCNC(=O)CN2CCN(CC(=O)O)CCN(CC(=O)O)CCN(CC(=O)O)CC2)CC1)C(C)C)C(N)=O [[^177Lu]Lu-PKB3, metal not drawn] show?
// result 2.7 %ID

====

Assay: Biodistribution in mice bearing PC-3 xenografts
Type: in vivo, Balb/c nu/nu mice
Settings: Balb/c nu/nu, mouse, blood, iv, 100 pmol, total radioactivity, PC-3 xenografted Balb/c nu/nu mice, iv 100 pmol; 2 h pi; mean ± SD, n = 4; read-out: Blood activity uptake
Method: Each mouse was xenografted with a subcutaneous injection of 8 × 10⁶ PC-3 cells in the right hind leg. After approximately 4 weeks, the animals were injected into the tail vein with 100 µL of radiopeptide (100 pmol—110–130 kBq, diluted in PBS/BSA). Four animals were used for each time point per peptide. […] At the determined time points, the mice were euthanized, organs were collected and weighed, and their activity content was measured in the gamma counter. […]
assay metric: tissue uptake at 2 h (%ID/g)
Expressed in %ID/g, but write only the number.

CC(C)C[C@H](NC(=O)C[C@H](O)[C@H](CC(C)C)NC(=O)[C@H](Cc1c[nH]cn1)NC(=O)CN(C)C(=O)[C@@H](NC(=O)[C@H](C)NC(=O)[C@](C)(Cc1c[nH]c2ccccc12)NC(=O)[C@H](CCC(N)=O)NC(=O)[C@@H](Cc1ccccc1)NC(=O)CN1CCC(NC(=O)COCCOCCNC(=O)CCC(C(=O)O)N2CCN(CC(=O)O)CCN(CC(=O)O)CCN(CC(=O)O)CC2)CC1)C(C)C)C(N)=O (some centres unmarked) [[^177Lu]Lu-PKB2, metal not drawn]    0.13

// query Bench note: what tissue uptake at 2 h did CC(C)C[C@H](NC(=O)C[C@H](O)[C@H](CC(C)C)NC(=O)[C@H](Cc1c[nH]cn1)NC(=O)CN(C)C(=O)[C@@H](NC(=O)[C@H](C)NC(=O)[C@](C)(Cc1c[nH]c2ccccc12)NC(=O)[C@H](CCC(N)=O)NC(=O)[C@@H](Cc1ccccc1)NC(=O)CN1CCC(NC(=O)COCCOCCNC(=O)CN2CCN(CC(=O)O)CCN(CC(=O)O)CCN(CC(=O)O)CC2)CC1)C(C)C)C(N)=O [[^177Lu]Lu-PKB3, metal not drawn] show?
// result 0.22

====

assay: Biodistribution in mice bearing PC-3 xenografts; format: in vivo, Balb/c nu/nu mice; settings: Balb/c nu/nu, mouse, muscle, iv, 100 pmol, total radioactivity, PC-3 xenografted Balb/c nu/nu mice, iv 100 pmol; 24 h pi; mean ± SD, n = 4; read-out: Muscle activity uptake
Reported tissue uptake at 24 h values are given for each entry in this list.
Expressed in %ID/g, but write only the number.

// query Bench note: what tissue uptake at 24 h did CC(C)C[C@H](NC(=O)C[C@H](O)[C@H](CC(C)C)NC(=O)[C@H](Cc1c[nH]cn1)NC(=O)CN(C)C(=O)[C@@H](NC(=O)[C@H](C)NC(=O)[C@](C)(Cc1c[nH]c2ccccc12)NC(=O)[C@H](CCC(N)=O)NC(=O)[C@@H](Cc1ccccc1)NC(=O)CN1CCC(NC(=O)COCCOCCNC(=O)CCC(C(=O)O)N2CCN(CC(=O)O)CCN(CC(=O)O)CCN(CC(=O)O)CC2)CC1)C(C)C)C(N)=O (some centres unmarked) [[^177Lu]Lu-PKB2, metal not drawn] show?
// result 0.02

// query Bench note: what tissue uptake at 24 h did CC(C)C[C@H](NC(=O)C[C@H](O)[C@H](CC(C)C)NC(=O)[C@H](Cc1c[nH]cn1)NC(=O)CN(C)C(=O)[C@@H](NC(=O)[C@H](C)NC(=O)[C@](C)(Cc1c[nH]c2ccccc12)NC(=O)[C@H](CCC(N)=O)NC(=O)[C@@H](Cc1ccccc1)NC(=O)CN1CCC(NC(=O)COCCOCCNC(=O)CN2CCN(CC(=O)O)CCN(CC(=O)O)CCN(CC(=O)O)CC2)CC1)C(C)C)C(N)=O [[^177Lu]Lu-PKB3, metal not drawn] show?
// result 0.02

====

experiment: Biodistribution in mice bearing PC-3 xenografts; format: in vivo, Balb/c nu/nu mice; conditions: Balb/c nu/nu, mouse, blood, lungs, spleen, muscle, bone, iv, 100 pmol, total radioactivity, PC-3 xenografted mice, 2 h pi; read-out: activity uptake in non-target organs (blood, lungs, spleen, muscle, and bone)
assay metric: tissue uptake at 2 h

// query Bench note: what tissue uptake at 2 h did CC(C)C[C@H](NC(=O)C[C@H](O)[C@H](CC(C)C)NC(=O)[C@H](Cc1c[nH]cn1)NC(=O)CN(C)C(=O)[C@@H](NC(=O)[C@H](C)NC(=O)[C@](C)(Cc1c[nH]c2ccccc12)NC(=O)[C@H](CCC(N)=O)NC(=O)[C@@H](Cc1ccccc1)NC(=O)CN1CCC(NC(=O)COCCOCCNC(=O)CCC(C(=O)O)N2CCN(CC(=O)O)CCN(CC(=O)O)CCN(CC(=O)O)CC2)CC1)C(C)C)C(N)=O (stereo partly shown) [[^177Lu]Lu-PKB2, metal not drawn] show?
// result < 0.6 %ID/g

====

Assay: Biodistribution in mice bearing PC-3 xenografts
Format: in vivo, Balb/c nu/nu mice
Settings: Balb/c nu/nu, mouse, stomach, small intestines, iv, 100 pmol, total radioactivity, PC-3 xenografted mice, 2 h pi; read-out: activity uptake in the stomach and small intestines
Procedure: Each mouse was xenografted with a subcutaneous injection of 8 × 10⁶ PC-3 cells in the right hind leg. After approximately 4 weeks, the animals were injected into the tail vein with 100 µL of radiopeptide (100 pmol—110–130 kBq, diluted in PBS/BSA). Four animals were used for each time point per peptide. […] At the determined time points, the mice were euthanized, organs were collected and weighed, and their activity content was measured in the gamma counter. […]
assay metric: tissue uptake at 2 h

// query Bench note: what tissue uptake at 2 h did CC(C)C[C@H](NC(=O)C[C@H](O)[C@H](CC(C)C)NC(=O)[C@H](Cc1c[nH]cn1)NC(=O)CN(C)C(=O)[C@@H](NC(=O)[C@H](C)NC(=O)[C@](C)(Cc1c[nH]c2ccccc12)NC(=O)[C@H](CCC(N)=O)NC(=O)[C@@H](Cc1ccccc1)NC(=O)CN1CCC(NC(=O)COCCOCCNC(=O)CCC(C(=O)O)N2CCN(CC(=O)O)CCN(CC(=O)O)CCN(CC(=O)O)CC2)CC1)C(C)C)C(N)=O (stereo partly shown) [[^177Lu]Lu-PKB2, metal not drawn] show?
// result < 2.5 %ID/g
